- assay.system: HIV-1 protease (Human immunodeficiency virus type 1 group M subtype B)
- experimental.protocol: biochemical
- experimental.setup: read-out: HIV-1 Protease % Inhib, dose 0.123 uM
inhibition at 0.123 µM values for the compounds below.
Lab book: enter the figure in %, no units written.

A selection of reference data follows.
| compound | reported.value |
| --- | --- |
| Nc1cccc(S(=O)(=O)Nc2cccc(C(c3c(O)c4c(oc3=O)CCCCCC4)C3CC3)c2)c1 (stereo not shown) [Example 353 (First Title Compound)] | 48.6 |
| O=c1oc2c(c(O)c1[C@H](c1ccccc1)C1CC1)CCCCCC2 [Example 229] | 16.9 |
| O=c1oc2c(c(O)c1C(c1cccc(NS(=O)(=O)c3cc(Cl)cc(Cl)c3O)c1)C1CC1)CCCCCC2 (stereo not shown) [Example 284] | 37.5 |
| O=c1oc2c(c(O)c1C(c1ccc(CO)s1)C1CC1)CCCCCC2 (stereo not shown) [Example 384] | 12.2 |
| O=c1oc2c(c(O)c1C(c1cccc(NS(=O)(=O)CCCCl)c1)C1CC1)CCCCCC2 (stereo not shown) [Example 331] | 66.4 |

Query string: Lab note: need inhibition at 0.123 µM with HIV-1 protease (Human immunodeficiency virus type 1 group M subtype B) for entry CN(C)S(=O)(=O)Nc1cccc(C(c2c(O)c3c(oc2=O)CCCCCC3)C2CC2)c1 (stereo not shown) [Example 398] , please look it up.
Result string: 10.5

Query string: Please give the result for O=C(Nc1cccc(C(c2c(O)c3c(oc2=O)CCCCCC3)C2CC2)c1)c1ccc(F)cc1 (stereo not shown) [Example 210] too.
Result string: 19.7

Query string: Could you do the same for O=c1oc2c(c(O)c1C(c1cccc(NS(=O)(=O)c3cccc(NS(=O)(=O)c4ccccc4)c3)c1)C1CC1)CCCCCC2 (stereo not shown) [Example 350] , please?
Result string: 22.2

Query string: Please answer likewise for CCCC(c1ccccc1)c1c(O)c2c(oc1=O)CCCCCC2 (stereo not shown) [Example 369]
Result string: 54.9

Query string: Also need N#Cc1ccccc1S(=O)(=O)Nc1cccc(C(c2c(O)c3c(oc2=O)CCCCCC3)C2CC2)c1 (stereo not shown) [Example 339] , thanks.
Result string: 53.5

Query string: Lookup O=c1oc2c(c(O)c1C(c1ccccc1)C1CC1)CCCCCC2CC1CO1 (stereo not shown) [Example 163]
Result string: 17.7

Query string: Cool, now O=c1oc2c(c(O)c1C(c1cccc(NS(=O)(=O)c3cc(Cl)sc3Cl)c1)C1CC1)CCCCCC2 (stereo not shown) [Example 304]
Result string: 25.7

Query string: Could you do the same for O=c1oc2c(c(O)c1C(c1cccc(NS(=O)(=O)c3ccc(F)cc3)c1)C1CC1)CCCCCC2 (stereo not shown) [Example 268] , please?
Result string: 71.2

Query string: Queued: CCCC(c1cccc(NS(=O)(=O)c2ccc(C#N)cc2)c1)c1c(O)c2c(oc1=O)CCCCCC2 (stereo not shown) [Example 378]
Result string: 103

Query string: Quick one: Cc1sc(C(c2c(O)c3c(oc2=O)CCCCCC3)C2CC2)cc1CO (stereo not shown) [Example 394]
Result string: 72.7

Query string: Subsequent entry: CC(C)C(c1cccc(NS(=O)(=O)c2ccc(Cl)cc2)c1)c1c(O)c2c(oc1=O)CCCCCC2 (stereo not shown) [Example 373]
Result string: 31.8
